molecular target: T1, recombinant human HER2 extracellular domain protein (human, UniProt P04626 23-652); assay: BLI, Protein A capture
T1 construct: range 23-652; Range is printed for the immunogen/panning protein; also called ErbB2; recombinant HER2 protein
Recorded kon, one value per entry.

| binder | kon |
| --- | --- |
| Hu2126-H2K1-L71-H72b-Mu17 (antibody, IgG1, V domains shown, IgG1/Cκ; also called 7172b-Mu17) VH: QVQLVQSGSELKKPGASVKVSCKASGYTFTDYSMHWVRQAPGQGLEWMGWINTGTGEPTYADDFKGRFTISRDTSKSTAYLQISSLKAEDTAVYYCVRVGRYDYAMDYWGQGTTVTVSS VL: DIQMTQSPSSLSASVGDRVTITCRASQDVYTAVAWYQQKPGKAPKLLINSASSRPTGVPSRFSGSGSGTDFTLTISSLQPEDFATYYCQQYYSTPPTFGGGTKVEIK | 98500 M⁻¹ s⁻¹ |
| Hu2126-H2K1-L71-H72b-Mu15 (antibody, IgG1, V domains shown, IgG1/Cκ; also called 7172b-Mu15) VH: QVQLVQSGSELKKPGASVKVSCKASGYTFTDYSMHWVRQAPGQGLEWMGWINTGTGEPTYADDFKGRFTISRDTSKSTAYLQISSLKAEDTAVYYCVRVGRYDYAMDYWGQGTTVTVSS VL: DIQMTQSPSSLSASVGDRVTITCRASQDVYTAVAWYQQKPGKAPKLLINQASSRPTGVPSRFSGSGSGTDFTLTISSLQPEDFATYYCQQYYSTPPTFGGGTKVEIK | 106000 M⁻¹ s⁻¹ |
| Hu2126-H2K1-L71-H72b-Mu18 (antibody, IgG1, V domains shown, IgG1/Cκ; also called 7172b-Mu18) VH: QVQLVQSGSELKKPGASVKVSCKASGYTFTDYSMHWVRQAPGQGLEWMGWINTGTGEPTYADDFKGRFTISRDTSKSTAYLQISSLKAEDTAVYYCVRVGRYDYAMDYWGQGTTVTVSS VL: DIQMTQSPSSLSASVGDRVTITCRASQDVYTAVAWYQQKPGKAPKLLINWASSRPTGVPSRFSGSGSGTDFTLTISSLQPEDFATYYCQQYYSTPPTFGGGTKVEIK | 124000 M⁻¹ s⁻¹ |
